// reported Activity for each item listed
test system: MCF7; assay: Cytotoxicity against hormone-dependent human MCF7 cells at 6 mM after 12 hrs by CCK-8 assay; format: functional
Just the number please, in %, no unit attached.

- compound: "OCC1(O)SC[C@@H](O)C(O)C1O (single isomer, unassigned)"
  assay_endpoint: "Activity"
  recorded_measurement: 3
- compound: "O[C@@H]1[C@@H](O)[C@H](O)[C@]2(CO2)[C@@H](O)[C@H]1O"
  assay_endpoint: "Activity"
  recorded_measurement: 53
- compound: "OC[C@@]12CO[C@H](O1)[C@H](O)[C@@H](O)[C@H]2O"
  assay_endpoint: "Activity"
  recorded_measurement: 5

Lab note: next compound to report on.
Input line: What value of measured Activity is listed for OC[C@H]1SC(O)[C@H](O)[C@@H](O)[C@@H]1O (some centres undefined) ?
Output line: 40

====

Activity reference
tested on: MCF7; assay: Cytotoxicity against hormone-dependent human MCF7 cells at 8 mM after 12 hrs by CCK-8 assay; assay type: functional
Numeric answer only, unit % assumed.

Recorded results for 3 compounds are shown here.
- compound: "OC[C@H]1SC(O)[C@H](O)[C@@H](O)[C@@H]1O (some centres undefined)"
  assay_endpoint: "Activity"
  units_symbol: "%"
  recorded_measurement: 49
- compound: "O[C@@H]1[C@@H](O)[C@H](O)[C@]2(CO2)[C@@H](O)[C@H]1O"
  assay_endpoint: "Activity"
  units_symbol: "%"
  recorded_measurement: 66
- compound: "OCC1(O)SC[C@@H](O)C(O)C1O (single isomer, unassigned)"
  assay_endpoint: "Activity"
  units_symbol: "%"
  recorded_measurement: 2

Now let's try a different one.
Input line: Reported Activity for OC[C@@]12CO[C@H](O1)[C@H](O)[C@@H](O)[C@H]2O : what is it?
Output line: 3

====

tested on: LoVo; experiment: Cytotoxicity against hormone-independent human LoVo cells at 6 mM after 12 hrs by CCK-8 assay; format: functional
assay_endpoint: Activity (%)
Give just the number in %; leave the unit off.

Input line: Report Activity for OCC1(O)SC[C@@H](O)C(O)C1O (single isomer, unassigned) please.
Output line: 32

====

Let's look at some compounds and their measured Activity.
test system: LoVo; test: Cytotoxicity against hormone-independent human LoVo cells at 6 mM after 12 hrs by CCK-8 assay; format: functional
Only the number, expressed in %, is required.

Some solved cases for reference:
- compound: "OC[C@H]1SC(O)[C@H](O)[C@@H](O)[C@@H]1O (stereo partly drawn)"
  assay_endpoint: "Activity"
  recorded_measurement: 85
- compound: "OC[C@@]12CO[C@H](O1)[C@H](O)[C@@H](O)[C@H]2O"
  assay_endpoint: "Activity"
  recorded_measurement: 13

Input line: Please report the recorded Activity for O[C@@H]1[C@@H](O)[C@H](O)[C@]2(CO2)[C@@H](O)[C@H]1O .
Output line: 5

Values from ChEMBL document CHEMBL3232828
